Test: HepG2 cytotoxicity screening (CellTiter-Glo)
Conditions: human, uninfected HepG2-A16-CD81 (EGFP) hepatocytes
Binary call on inhibition at 2 µM: fulfilled from 10% upward, not fulfilled beneath that.

{"COMPOUND": "Clc1ccc(-c2ccc(C3CNCCO3)nc2)cc1 (stereo not drawn)", "CLASS_ASSIGNMENT": "fulfilled"}
{"COMPOUND": "CC(NCc1cccs1)c1ccc(OCc2nccn2C)cc1 (stereo not drawn)", "CLASS_ASSIGNMENT": "not fulfilled"}
{"COMPOUND": "Cc1nc(NC(=O)c2c(-n3cnnn3)sc3c2CCCC3)sc1C", "CLASS_ASSIGNMENT": "fulfilled"}
{"COMPOUND": "Cc1n[nH]c(CN2CCN(c3ncnc4scc(C)c34)CC2)c1Cl", "CLASS_ASSIGNMENT": "fulfilled"}
{"COMPOUND": "CS(=O)(=O)CCC(=O)NC1(c2cccc(C(F)(F)F)c2)CCC1", "CLASS_ASSIGNMENT": "not fulfilled"}
{"COMPOUND": "Cc1cc(C)c(CCNC(=O)CN2CCCN(C(N)=O)CC2)c(C)c1", "CLASS_ASSIGNMENT": "not fulfilled"}
{"COMPOUND": "CC(C)c1n[nH]c(C(=O)Nc2ccccn2)c1Br", "CLASS_ASSIGNMENT": "fulfilled"}
{"COMPOUND": "NC(=O)c1ccc(N2CCCCC2)c(NC(=O)c2ccc(F)cc2F)c1", "CLASS_ASSIGNMENT": "not fulfilled"}
{"COMPOUND": "CCc1ccccc1OC1CN(C(=O)c2ccnc(OC)c2)C1", "CLASS_ASSIGNMENT": "not fulfilled"}

----------
The following compounds are listed with their measured IC50 values.
Assay: HepG2 cytotoxicity screening (CellTiter-Glo)
Details: human, uninfected HepG2-A16-CD81 (EGFP) hepatocytes
EXPERIMENTAL_READOUT: IC50

{"COMPOUND": "COc1ccc(F)c(CN2CCCC(O)(CNCC(C)(C)C)C2=O)c1 (stereo not drawn)", "EXPERIMENTAL_READOUT": "IC50", "ASSAY_VALUE": "> 50 µM"}
{"COMPOUND": "COc1ccc(OCCN2CCC(N3CCNC3=O)CC2)cc1", "EXPERIMENTAL_READOUT": "IC50", "ASSAY_VALUE": "> 50 µM"}
{"COMPOUND": "CCS(=O)(=O)N1CCc2ccc(NC(=O)Nc3cccc(SC)c3)cc21", "EXPERIMENTAL_READOUT": "IC50", "ASSAY_VALUE": "3.39 µM"}
{"COMPOUND": "O=C(c1ccc(Br)o1)N1CCN(Cc2ccc(OC(F)(F)F)cc2)CC1", "EXPERIMENTAL_READOUT": "IC50", "ASSAY_VALUE": "> 25 µM"}
{"COMPOUND": "O=C(Nc1ccc(Cl)cn1)c1nn(C2CCS(=O)(=O)C2)c2c1CCCC2 (stereo not drawn)", "EXPERIMENTAL_READOUT": "IC50", "ASSAY_VALUE": "> 25 µM"}
{"COMPOUND": "CCc1ccc(-c2ncc3c(n2)N(C)CCN(CCN(C)C)C3=O)cc1", "EXPERIMENTAL_READOUT": "IC50", "ASSAY_VALUE": "> 25 µM"}
{"COMPOUND": "Cc1nc(NC(=O)c2c(-n3cnnn3)sc3c2CCCC3)sc1C", "EXPERIMENTAL_READOUT": "IC50", "ASSAY_VALUE": "> 50 µM"}
{"COMPOUND": "Cc1csc2ncnc(N3CCC(Cn4cc(C(C)(C)O)nn4)CC3)c12", "EXPERIMENTAL_READOUT": "IC50", "ASSAY_VALUE": "> 25 µM"}
{"COMPOUND": "CC(NC(=O)c1cc(-c2cccc(Cl)c2)no1)C(=O)N1CCCC1 (stereo not drawn)", "EXPERIMENTAL_READOUT": "IC50", "ASSAY_VALUE": "> 25 µM"}

----------
System: P. falciparum Dd2 (PfLuc) line expressing firefly luciferase, asexual blood stage
Test: microbe, parasite or virus in culture
Assay type: cell-based, Plasmodium falciparum
Settings: Plasmodium falciparum, DD2, read-out: CDD P. falciparum Luciferase ABS 11-pt Reconfirmation Dose Response (48hr): IC50 (μM); 11-pt dose response, 48hr
The following compounds are listed with their measured IC50 values.
EXPERIMENTAL_READOUT: IC50 (µM)

{"COMPOUND": "Cc1ccc(C2(CN3CCN(Cc4cnc(C)n4C)CC3)CC2)cc1 [DDD01059041]", "EXPERIMENTAL_READOUT": "IC50", "COMPARISON_SIGN": "=", "ASSAY_VALUE": 1.95}
{"COMPOUND": "c1ccc(N2CCCC3(CCN(Cc4ccsc4)C3)C2)nc1 (centres unmarked) [DDD01029521]", "EXPERIMENTAL_READOUT": "IC50", "COMPARISON_SIGN": "=", "ASSAY_VALUE": 3.75}
{"COMPOUND": "CN1CCC(N(C)c2ccccc2CNCc2ccco2)CC1 [DDD01074928]", "EXPERIMENTAL_READOUT": "IC50", "COMPARISON_SIGN": "=", "ASSAY_VALUE": 1.71}
{"COMPOUND": "Cc1ccc(CNC(C)c2cc(F)ccc2N2CCN(C)CC2)o1 (centres unmarked) [DDD01061881]", "EXPERIMENTAL_READOUT": "IC50", "COMPARISON_SIGN": "=", "ASSAY_VALUE": 3.93}
{"COMPOUND": "CCC(NCc1ccccc1C)c1ccccc1OCC(=O)NC (centres unmarked) [DDD01075651]", "EXPERIMENTAL_READOUT": "IC50", "COMPARISON_SIGN": ">", "ASSAY_VALUE": 12.5}

----------
Test system: P. falciparum Dd2 (PfLuc) line expressing firefly luciferase, asexual blood stage
Test: microbe, parasite or virus in culture
Format: cell-based, Plasmodium falciparum
Settings: Plasmodium falciparum, DD2, read-out: CDD P. falciparum Luciferase ABS 11-pt Reconfirmation Dose Response (48hr): IC50 (μM); 11-pt dose response, 48hr

{"MOLECULE_SMILES": "COc1cccc(CNCc2ccc(F)cc2Cl)c1O", "COMPARISON_SIGN": ">", "IC50, µM": 4.16}
{"MOLECULE_SMILES": "CN1[C@H](Cn2cccn2)C[C@@H]2CN(Cc3cccs3)CC[C@@H]21", "COMPARISON_SIGN": ">", "IC50, µM": 12.5}
{"MOLECULE_SMILES": "Cc1ccsc1CN(CCCN(C)C)Cc1ccccn1", "COMPARISON_SIGN": ">", "IC50, µM": 12.5}
{"MOLECULE_SMILES": "Cc1ccccc1CNCc1cc(Cl)ccc1O", "COMPARISON_SIGN": "=", "IC50, µM": 11}
{"MOLECULE_SMILES": "Brc1ccc(C2(CNCc3cc[nH]c3)CCOCC2)cc1", "COMPARISON_SIGN": "=", "IC50, µM": 0.715}

----------
The following compounds are listed with their measured Emax values.
Test system: P. falciparum Dd2
Test: SYBR green I asexual blood stage proliferation assay (96 h)
Assay type: cell-based, Plasmodium falciparum
Conditions: Plasmodium falciparum, DD2; Sybr Green I, 11-pt dose response, 96hr; read-out: CDD P. falciparum Sybr Green I ABS 11-pt Reconfirmation Dose Response (96hr): Maximum inhibition (%)

{"COMPOUND": "CCOc1ccc(CN2CCCC(c3cc4ncccc4[nH]3)C2)cc1 (centres unmarked)", "Emax [%]": 95.7}
{"COMPOUND": "CN1CCC(O)(CNCc2ccc(F)c(C(F)(F)F)c2)CC1", "Emax [%]": 86.1}
{"COMPOUND": "Brc1ccc(C2(CNCc3cc[nH]c3)CCOCC2)cc1", "Emax [%]": 54}
{"COMPOUND": "Cc1cc(C)n(C2CN(CC(O)c3cc(F)ccc3F)C2)n1 (centres unmarked)", "Emax [%]": 98.5}
{"COMPOUND": "CC(C)[C@@H]1CN(C(=O)C2(c3ccccc3)CCN(C)CC2)C[C@H]1N(C)C", "Emax [%]": 87.8}

----------
The following compounds are listed with their measured HepG2 Cytotoxicity primary screen (2uM): % Inhibition values.
Test system: HepG2-A16-CD81 hepatocytes
Assay: HepG2 cytotoxicity screening (CellTiter-Glo)
Conditions: 2uM, primary screen
EXPERIMENTAL_READOUT: HepG2 Cytotoxicity primary screen (2uM): % Inhibition (%)

{"COMPOUND": "CCNc1ccnc(CN2CCCC2C(=O)Nc2nccs2)c1 (stereo not shown)", "ASSAY_VALUE": 1.30}
{"COMPOUND": "Cc1ccc(Sc2ccc(CN3CCC4(CCCNC4=O)C3)o2)cc1 (stereo not shown)", "ASSAY_VALUE": -4.20}
{"COMPOUND": "Cc1ncc(CN2CCOC(c3ccc(-c4ccccc4F)cn3)C2)s1 (stereo not shown)", "ASSAY_VALUE": -6.23}
{"COMPOUND": "CC(NC(=O)c1cc(-c2cccc(Cl)c2)no1)C(=O)N1CCCC1 (stereo not shown)", "ASSAY_VALUE": 0.00}
